test: qHTS Assay for Lipid Storage Modulators in Drosophila S3 Cells; details: BODIPY lipid droplet fluorescence, 18-24 h, cells fed with added oleic acid; measured here: cell count max response;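 further: cells counted by Cell Tracker Red CMTPX staining in the red channel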
The whole screen tested about 320,000 compounds, of which about 2,100 (0.66%) were called active. Not shown: some 53% with an inconclusive outcome. What follows is part of a selection rich in actives, with near analogues and random picks from the rest.
measure: cell number change (%)
The answer is to be given in %; state only the numeric part.

Inquiry: // lookup cell number change for "Cc1ccc(SCc2nc3ccccc3n2CC(=O)Nc2ccc(Cl)cc2)cc1"
Reply text: -17.3

Inquiry: // lookup cell number change for "CC1=C(C(=O)OCC(C)C)[C@]23C(=O)c4ccccc4[C@@]2(O1)OC(N)=C3C#N"
Reply text: -12

Inquiry: // lookup cell number change for Cn1c(=O)c2c(nc(NCc3ccco3)n2CC(O)CO)n(C)c1=O (configuration not stated)
Reply text: 9.76

Inquiry: // lookup cell number change for "COCC(=O)N1CCN(c2cccc(Cl)c2)CC1"
Reply text: -20.3

Inquiry: // lookup cell number change for "c1ccc(C[C@H]2CNCCN2CCc2cccc3ccccc23)cc1"
Reply text: -0.264

Inquiry: // lookup cell number change for "CCCNc1nc2c(c(=O)n(C)c(=O)n2C)n1CCCc1ccccc1"
Reply text: -29.8

Inquiry: // lookup cell number change for CCCCN1C(=O)C2NN=C(C(=O)OC)C2C1=O (configuration not stated)
Reply text: 1.06

Inquiry: // lookup cell number change for "COc1ccc2c(c1)CCc1c(C(=O)NCc3ccc(Cl)cc3)noc1-2"
Reply text: 3.58

Inquiry: // lookup cell number change for "Cc1ccccc1N(CC(=O)NC1CCCC1)C(=O)c1csnn1"
Reply text: -1.91

Inquiry: // lookup cell number change for "Cc1cc(C)cc(N(CC(=O)NC2CCCCC2)C(=O)c2csnn2)c1"
Reply text: 3.85

Inquiry: // lookup cell number change for "O=S(=O)(NCc1ccccc1)c1ccc(Cl)cc1"
Reply text: -16.1

Inquiry: // lookup cell number change for "Cc1cc(C(=O)N/N=C/c2c(CO)cnc(C)c2O)c2ccccc2n1"
Reply text: -19.9
